PROTOCOL NOTES: Metabolic stability in human liver microsomes assessed as half life
Type: ADME, Microsome
METRIC: half-life (min)

A = C[C@H]1CNC(=O)c2cnn3ccc(nc23)N[C@H](C)c2cc(F)ccc2O1 [REPOTRECTINIB]
B = C[C@H]1Nc2ccc3ncc(n3n2)C(=O)NC2(CC2)COc2ccc(F)cc21
Req: Please state the entry with greater half-life among A and B . Give the label of your selection.
Resp: A
(A: 54.1 min, B: 33.8 min)

----------
Test system: KARPAS-299
PROTOCOL NOTES: Antiproliferative activity against human KARPAS-299 cells assessed as cell growth inhibition by CCK-8 assay
METRIC: IC50 (nM)

INSERT INTO measurements (structure_string, metric, measured_result) VALUES
  ('C[C@H]1CNC(=O)c2cnn3ccc(nc23)N[C@H](C)c2cc(F)ccc2O1', 'IC50', 40);

P = C[C@H]1Nc2ccc3ncc(n3n2)C(=O)NC2(CC2)COc2ccc(F)cc21
Q = C[C@H]1CNC(=O)c2cnc3ccc(nn23)N[C@H](C)c2cc(F)ccc2O1
Req: Please state the entry with greater IC50 among P and Q . Give the label of your selection.
Resp: Q

----------
Measured IC50 (ALK tyrosine kinase receptor (Homo sapiens, UniProt Q9UM73))
METRIC: IC50 (nM)

Examples with answers:
INSERT INTO results (structure_string, measured_result) VALUES
  ('CC1(C)COc2ccc(F)cc2CN(C2CCC2)c2ccc3ncc(n3n2)C(=O)N1', 159),
  ('CN1Cc2cc(F)ccc2OCC(C)(C)NC(=O)c2cnc3ccc1nn23', 25),
  ('C[C@H]1Nc2ccc3ncc(n3n2)C(=O)NC(C)(C)COc2ccc(F)cc21', 8.3),
  ('CC1(C)COc2ccc(F)cc2CN(C2CC2)c2ccc3ncc(n3n2)C(=O)N1', 77),
  ('C[C@H]1CNC(=O)c2cnc3ccc(nn23)N[C@H](C)c2cc(F)ccc2O1', 5.1);

A = Cc1cc2ncc3n2nc1N[C@H](C)c1cc(F)ccc1OCC1(CC1)NC3=O
B = C[C@H]1Nc2ccc3ncc(n3n2)C(=O)NC2(CC2)COc2ccc(F)cc21
C = C=CC[C@H]1Nc2ccc3ncc(n3n2)C(=O)NC2(CC2)COc2ccc(F)cc21
D = C[C@H]1Nc2ccc3ncc(n3n2)C(=O)NC2(CC2)COc2cc(F)ccc21
Req: Order the records by IC50, with each subsequent value no larger than the one before. Field: ranking. Enter the labels in the order requested.
Resp: D, A, C, B

----------
PROTOCOL NOTES: Metabolic stability in human liver microsomes assessed as clearance
Format: ADME, Microsome
CONDITION NOTES: read-out: CLH
METRIC: microsomal CLint (µL/min/mg)

a = C[C@H]1CNC(=O)c2cnn3ccc(nc23)N[C@H](C)c2cc(F)ccc2O1
b = C[C@H]1Nc2ccc3ncc(n3n2)C(=O)NC2(CC2)COc2ccc(F)cc21
Req: Please state the entry with greater microsomal CLint among a and b . Give the label of your selection.
Resp: b

----------
MEASUREMENT TARGET: ALK tyrosine kinase receptor (Homo sapiens, UniProt Q9UM73, G1202R)
Sequence (Q9UM73 19-1620 G1202R limits assumed): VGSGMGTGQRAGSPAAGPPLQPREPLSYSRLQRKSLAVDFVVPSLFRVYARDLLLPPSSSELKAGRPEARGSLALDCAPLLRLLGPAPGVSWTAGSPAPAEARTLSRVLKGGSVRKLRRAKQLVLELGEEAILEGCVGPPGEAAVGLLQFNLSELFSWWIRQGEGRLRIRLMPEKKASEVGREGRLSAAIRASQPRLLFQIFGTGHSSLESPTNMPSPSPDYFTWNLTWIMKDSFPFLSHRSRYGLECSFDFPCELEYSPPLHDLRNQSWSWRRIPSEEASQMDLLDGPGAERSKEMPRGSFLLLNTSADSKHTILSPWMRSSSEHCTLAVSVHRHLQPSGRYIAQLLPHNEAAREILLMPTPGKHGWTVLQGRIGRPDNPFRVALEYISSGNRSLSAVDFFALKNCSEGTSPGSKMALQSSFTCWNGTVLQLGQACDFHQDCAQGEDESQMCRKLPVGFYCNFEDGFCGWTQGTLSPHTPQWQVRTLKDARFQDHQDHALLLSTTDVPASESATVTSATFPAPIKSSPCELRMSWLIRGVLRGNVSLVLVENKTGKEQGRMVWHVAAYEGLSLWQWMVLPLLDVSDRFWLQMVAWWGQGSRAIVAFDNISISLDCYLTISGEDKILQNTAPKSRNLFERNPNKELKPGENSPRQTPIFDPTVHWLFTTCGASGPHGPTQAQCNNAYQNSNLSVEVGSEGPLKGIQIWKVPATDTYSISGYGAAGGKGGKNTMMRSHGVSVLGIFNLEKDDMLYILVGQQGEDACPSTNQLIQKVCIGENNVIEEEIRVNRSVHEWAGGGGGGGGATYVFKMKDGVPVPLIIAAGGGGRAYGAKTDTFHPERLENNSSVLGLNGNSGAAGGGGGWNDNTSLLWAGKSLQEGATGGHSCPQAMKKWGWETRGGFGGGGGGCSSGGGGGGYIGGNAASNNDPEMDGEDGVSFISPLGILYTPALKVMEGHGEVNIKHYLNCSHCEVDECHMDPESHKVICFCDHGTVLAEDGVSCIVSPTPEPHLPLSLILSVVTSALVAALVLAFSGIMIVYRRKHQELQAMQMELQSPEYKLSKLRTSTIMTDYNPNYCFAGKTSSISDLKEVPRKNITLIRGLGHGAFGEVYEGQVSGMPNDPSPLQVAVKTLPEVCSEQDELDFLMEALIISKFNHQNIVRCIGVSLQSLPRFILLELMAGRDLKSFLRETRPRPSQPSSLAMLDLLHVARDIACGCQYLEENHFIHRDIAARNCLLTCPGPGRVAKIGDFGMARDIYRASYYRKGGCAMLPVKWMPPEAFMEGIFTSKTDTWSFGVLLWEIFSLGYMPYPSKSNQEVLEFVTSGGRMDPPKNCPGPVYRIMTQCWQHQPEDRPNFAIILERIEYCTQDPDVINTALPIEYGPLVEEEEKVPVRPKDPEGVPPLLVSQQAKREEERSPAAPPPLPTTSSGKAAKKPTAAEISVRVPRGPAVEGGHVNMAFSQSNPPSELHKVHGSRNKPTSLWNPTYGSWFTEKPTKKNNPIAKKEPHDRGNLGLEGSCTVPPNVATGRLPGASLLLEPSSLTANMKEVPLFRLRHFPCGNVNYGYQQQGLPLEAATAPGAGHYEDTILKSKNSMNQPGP
PROTOCOL NOTES: Inhibition of ALK G1202R mutant (unknown origin)
METRIC: IC50 (nM)

INSERT INTO results (structure_string, measurement_target, metric, measured_result) VALUES
  ('CC1(C)COc2ccc(F)cc2CN(C2CCC2)c2ccc3ncc(n3n2)C(=O)N1', 'ALK tyrosine kinase receptor (Homo sapiens, UniProt Q9UM73, G1202R)', 'IC50', 200);

1 = C=CC[C@H]1Nc2ccc3ncc(n3n2)C(=O)NC2(CC2)COc2ccc(F)cc21
2 = C[C@H]1Nc2ccc3ncc(n3n2)C(=O)NC2(CC2)COc2ccc(F)cc21
3 = CCN1Cc2cc(F)ccc2OCC(C)(C)NC(=O)c2cnc3ccc1nn23
4 = C[C@H]1Nc2ccc3ncc(n3n2)C(=O)NC2(CCC2)COc2ccc(F)cc21
Req: Please produce an ascending ranking of these compounds based on IC50. Field: ranking. Enter the labels in the order requested.
Resp: 4, 2, 3, 1
(4: 4.7 nM, 2: 8 nM, 3: 22 nM, 1: 64 nM)

P = C[C@H]1CNC(=O)c2cnc3ccc(nn23)N[C@H](C)c2cc(F)ccc2O1
Q = CC1(C)COc2ccc(F)cc2CNc2ccc3ncc(n3n2)C(=O)N1
Req: Kindly compare P with Q and tell me which has the lower IC50 figure. Give the label of your selection.
Resp: P

a = CN1Cc2cc(F)ccc2OCC(C)(C)NC(=O)c2cnc3ccc1nn23
b = C[C@H]1Nc2ccc3ncc(n3n2)C(=O)NC2(CC2)COc2ccc(Cl)cc21
c = C[C@H]1Nc2ccc3ncc(n3n2)C(=O)NC(C)(C)COc2ccc(F)cc21
d = CC(C)N1Cc2cc(F)ccc2OCC(C)(C)NC(=O)c2cnc3ccc1nn23
Req: Please produce an ascending ranking of these compounds based on IC50. Field: ranking. Enter the labels in the order requested.
Resp: c, a, b, d
(c: 6.4 nM, a: 19 nM, b: 56 nM, d: 145 nM)
